B1: MATN2 (parent)
chain: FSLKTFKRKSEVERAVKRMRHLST

# Variants of: B1
# Method: protein stability index of a GFP-peptide fusion (GPS, HEK-293T) (PSI 1-6); higher = more stable;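 also: lentivirally expressed fusions sorted by FACS into six bins by GFP to DsRed ratio, PSI derived from sequencing read proportions per bin multiplied by bin number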
# Experimental parameters: c terminus: a fixed tail appended
Measured property: protein stability index
Write the value as a bare number.

Record K7C . Reported protein stability index: 1.63

GET /value?item= R8S &field=protein stability index returns 1.93

protein stability index in this record for K9G : 2.46

The variant K7V showed protein stability index equal to 2.91

Lab book: protein stability index of L3M noted as 2.25

Short answer for L3V : protein stability index was 2.11

// recorded protein stability index for R20F : 1.9

Short answer for T5H : protein stability index was 1.91

Noted for E13G : its protein stability index reads 1.83

The value of protein stability index measured for the variant T24A turned out to be 2.72

The value of protein stability index measured for the variant E11T turned out to be 2.99

Sample R8T ; protein stability index observed: 2.47

// protein stability index lookup, variant = L3E , result: 3.08

Briefly, protein stability index measured for E13K : 2.69

The reported value for K7I in terms of protein stability index is 1.31

So, R20Q ? Its protein stability index was 2.22

Consider E13P . Its measured protein stability index is 3.15

Sure, the documented protein stability index for T24W is 1.55

Noted for V12W : its protein stability index reads 1.24

variant A15Q , protein stability index observed: 2.58

response.value for L22T (field: protein stability index) = 3.17

protein stability index reading for A15D : 2.89

The variant listed as K7A shows protein stability index equal to 1.78

F1M has a reported protein stability index of 2.24

Reported protein stability index for K7T was 2.31

Sure, the documented protein stability index for L3I is 2.56

Item: F1Y | protein stability index: 3.13

The recorded protein stability index for F1P is 3

Measured protein stability index of K7R : 2.45

Briefly, protein stability index measured for M19C : 2.61

Looking up H21L , I see its protein stability index listed as 1.46

variant F1S , protein stability index observed: 2.87

Looking up S23N , I found its protein stability index recorded as 2.53

Looking up E11L , I found its protein stability index recorded as 2.56

Record F1Q , field protein stability index: 3.62

// S10I : protein stability index value = 1.49

Briefly, protein stability index measured for T24Q : 1.55

Field protein stability index (entry L22M ) reads 2.57

Noted for M19R : its protein stability index reads 4.54

Noted for H21I : its protein stability index reads 1.76

Value of measured protein stability index for the entry L22I : 2.36

The variant R14D showed protein stability index equal to 2.73

Noted for S23E : its protein stability index reads 2

Form: variant = V16S ; protein stability index = 2.57

GET /value?item= F6C &field=protein stability index returns 2.28

Recorded protein stability index (variant S2G ): 3.21
